Reference source: patent US8563542B2

Assign pIC50 to each entry below.
biological target: PLK1 (Homo sapiens, UniProt P53350); test: PLK1 protein kinase assay (CDC25C phosphorylation, [γ-32P]-ATP); type: biochemical; conditions: Table 2, PLK1 IC50; class symbols; read-out: PLK1 IC50
Sequence (P53350 whole entry): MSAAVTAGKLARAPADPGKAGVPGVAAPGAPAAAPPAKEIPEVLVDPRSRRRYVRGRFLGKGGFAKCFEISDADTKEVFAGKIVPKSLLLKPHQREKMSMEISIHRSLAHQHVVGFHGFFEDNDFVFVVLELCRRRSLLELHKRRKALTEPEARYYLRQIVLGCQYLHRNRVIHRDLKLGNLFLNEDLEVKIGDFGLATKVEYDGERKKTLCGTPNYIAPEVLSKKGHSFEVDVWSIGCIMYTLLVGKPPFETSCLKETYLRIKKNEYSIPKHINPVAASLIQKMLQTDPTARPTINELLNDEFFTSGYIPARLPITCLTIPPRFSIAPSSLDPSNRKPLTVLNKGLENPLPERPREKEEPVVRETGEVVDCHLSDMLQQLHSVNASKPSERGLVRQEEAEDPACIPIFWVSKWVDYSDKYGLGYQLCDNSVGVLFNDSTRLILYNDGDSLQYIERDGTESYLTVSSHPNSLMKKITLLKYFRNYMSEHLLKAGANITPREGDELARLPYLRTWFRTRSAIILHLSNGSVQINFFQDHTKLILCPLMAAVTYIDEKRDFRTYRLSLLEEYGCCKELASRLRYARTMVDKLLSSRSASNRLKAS
pIC50: −log10 of the molar value.

QUERY: Tell me the measured pIC50 of COc1cc(C(=O)NCCO)ccc1Nc1ncc2c(n1)N(C1CCCC1)CCC(=O)N2C , please.
RESULT: > 6.00

QUERY: Another molecule to check: COc1cc(C(=O)NCCN2CCOCC2)ccc1Nc1ncc2c(n1)N(C1CCCC1)CCC(=O)N2C
RESULT: > 6.00

QUERY: COc1cc(C(=O)NCC(=O)N2CCN(C(C)C)CC2)ccc1Nc1ncc2c(n1)N(C1CCCC1)CC1(CC1)C(=O)N2C , same question.
RESULT: > 6.00

QUERY: What would you report for Cc1ccc(N2CCC(=O)N(C)c3cnc(Nc4ccc5c(c4)CS(=O)(=O)C5)nc32)cc1 ?
RESULT: > 5.00

QUERY: Let us now turn to COc1cc(C(=O)NC2CN3CCC2CC3)ccc1Nc1ncc2c(n1)N(C1CCCC1)CC1(CC1)C(=O)N2C (racemic)
RESULT: > 7.00

QUERY: What about CCc1cc(C(=O)O)ccc1Nc1ncc2c(n1)N(C1CCCC1)CCC(=O)N2C ?
RESULT: > 5.00

QUERY: Same question for COc1cc(C(=O)NC2CCN(C)CC2)ccc1Nc1ncc2c(n1)N(C1CCCC1)CC1(CCC1)C(=O)N2C please.
RESULT: > 7.00

QUERY: Thanks! And CN1C(=O)CCN(C2CCCC2)c2nc(NCc3ccsc3)ncc21 ?
RESULT: > 5.00

----------
target: AA (Homo sapiens); assay: AA IC50 (Table 1; no method given); type: biochemical; conditions: Table 2, AurA IC50; class symbols; read-out: AurA IC50
Sequence (O14965 whole entry): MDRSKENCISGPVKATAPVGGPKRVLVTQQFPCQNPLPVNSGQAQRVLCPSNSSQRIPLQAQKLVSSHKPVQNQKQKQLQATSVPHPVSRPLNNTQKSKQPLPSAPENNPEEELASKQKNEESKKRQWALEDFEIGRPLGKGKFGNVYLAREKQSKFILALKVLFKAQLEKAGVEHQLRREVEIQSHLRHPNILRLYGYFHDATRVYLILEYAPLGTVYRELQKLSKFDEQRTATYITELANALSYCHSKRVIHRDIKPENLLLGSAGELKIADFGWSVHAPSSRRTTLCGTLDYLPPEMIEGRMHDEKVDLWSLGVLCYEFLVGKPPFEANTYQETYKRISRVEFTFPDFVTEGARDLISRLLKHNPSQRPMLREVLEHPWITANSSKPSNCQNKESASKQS
I'd appreciate it if you could supply IC50 values for the items below.

QUERY: Which IC50 is listed for CCN1C(=O)CCN(c2ccc(C(C)(C)C)cc2)c2nc(Nc3ccc4c(c3)CS(=O)(=O)C4)ncc21 [compound 335] ?
RESULT: < 10 µM

QUERY: Next entry: CC(=O)NS(=O)(=O)c1ccc(Nc2ncc3c(n2)N(c2ccc(N4CCOCC4)cc2)CCC(=O)N3C)cc1 [compound 352]
RESULT: < 1 µM

QUERY: Next entry: CCN1C(=O)CCN(c2ccc(N3CCOCC3)cc2)c2nc(Nc3ccc4c(c3)CS(=O)(=O)C4)ncc21 [compound 338]
RESULT: < 1 µM

QUERY: Repeat with CN1CCN(S(=O)(=O)c2ccc(Nc3ncc4c(n3)N(C3CCCC3)CCC(=O)N4C)cc2)CC1 [compound 105]
RESULT: < 1 µM

QUERY: // same read-out, input: COc1ccc(CN2CC(C)C(=O)N(C)c3cnc(Nc4ccc(C(=O)O)cc4)nc32)cc1OC (stereo not shown) [compound 45]
RESULT: < 10 µM

QUERY: Request: COc1ccc(N2CCC(=O)N(C)c3cnc(Nc4ccc(S(=O)(=O)NC(C)=O)cc4)nc32)cc1 [compound 350]
RESULT: < 1 µM

QUERY: Now the same for CN1C(=O)CCN(C2CCCC2)c2nc(Nc3ccc(C(=O)N4CCOCC4)cc3)ncc21 [compound 297]
RESULT: < 0.1 µM
